Measured IC50 accompanies every entry in the list below.
biological target: PSMA-expressing C4-2 cells (Homo sapiens); construct: PSMA-expressing C4-2 cells (ATCC, Cat. No. CRL-3314) were cultured in RPMI-1640; host or cells: C4-2 cells; experiment: FACS binding assay (competition with 50 nM PSM-0183); details: pIC50 category of FACS binding, C4-2 cells; read-out: pIC50 [C4-2] CAT (converted)
Numbered stars: 1 amine (or outer) side, 2 acyl side, 3 side chain; on linkers, the order of the positions; unused ones are H or OH. Bridge positions count the residues as written; N and C are the ends. Square brackets hold non-standard residues; d marks the D form. Peptide text beside a SMILES is read from it. * marks the point of attachment. DOTA = O=C(O)CN1CCN(CC(=O)O)CCN(CC(=O)*)CCN(CC(=O)O)CC1; Phe(4-Cl) = N[C@@H](Cc1ccc(Cl)cc1)C(=O)O; Arg(Me) = CNC(=N)NCCC[C@H](N)C(=O)O; Ethylenediamine = C(CN[*:2])N[*:1]; 2Pal = N[C@@H](Cc1ccccn1)C(=O)O; X1 = O=C(CC1CCN([*:1])CC1)[*:2]; Lys(Me) = CNCCCC[C@H](N)C(=O)O; Tle = CC(C)(C)[C@H](N)C(=O)O; Nle = CCCC[C@H](N)C(=O)O; Aib = CC(C)(N)C(=O)O
Assay Metric: IC50

Compound: C[C@@H](O)[C@H](NC(=O)CC1CCN(C(=O)CN2CCN(CC(=O)O)CCN(CC(=O)O)CCN(CC(=O)O)CC2)CC1)C(=O)NC(C)(C)C(=O)N[C@@H](Cc1ccc(Cl)cc1)C(=O)N[C@H]1CSSC[C@@H](C(=O)N[C@H](C(N)=O)C(C)(C)C)NC(=O)[C@H](CC(N)=O)NC(=O)C(C)(C)NC(=O)[C@H](CCCNC(=N)N)NC(=O)[C@H](CCCCN)NC1=O [PSM-0433] ({DOTA}-[X1]T[Aib][Phe(4-Cl)]CKR[Aib]NC[Tle]-NH2; disulfide 5-10)
Assay Metric: IC50
Reported Value: < 200 nM

Compound: C[C@@H](O)[C@H](NC(=O)[C@@H](NC(=O)[C@@H]1CSSC[C@H](NC(=O)[C@H](Cc2ccccc2)NC(=O)C(C)(C)NC(=O)CC2CCN(C(=O)CN3CCN(CC(=O)O)CCN(CC(=O)O)CCN(CC(=O)O)CC3)CC2)C(=O)N[C@@H](CCCCN)C(=O)N[C@@H](CCCNC(=N)N)C(=O)NC(C)(C)C(=O)N[C@@H](CC(N)=O)C(=O)N1)C(C)(C)C)C(N)=O [PSM-0507] ({DOTA}-[X1][Aib]FCKR[Aib]NC[Tle]T-NH2; disulfide 4-9)
Assay Metric: IC50
Reported Value: < 200 nM

Compound: CCCC[C@H](NC(=O)[C@@H]1CSSC[C@H](NC(=O)[C@H](Cc2ccccc2)NC(=O)C(C)(C)NC(=O)[C@@H](NC(C)=O)[C@@H](C)O)C(=O)N[C@@H](CCCCN)C(=O)N[C@@H](CCCNC(=N)N)C(=O)N[C@@H](C)C(=O)N[C@@H](CC(N)=O)C(=O)N1)C(=O)N[C@H](C(=O)N[C@@H](CC(=O)O)C(N)=O)[C@@H](C)O [PSM-0501] (Ac-T[Aib]FCKRANC[Nle]TD-NH2; disulfide 4-9)
Assay Metric: IC50
Reported Value: < 200 nM

Compound: CNCCCC[C@@H]1NC(=O)[C@@H](NC(=O)[C@H](Cc2ccc(Cl)cc2)NC(=O)C(C)(C)NC(C)=O)CSSC[C@@H](C(=O)N[C@H](C(=O)NCCNC(=O)CN2CCN(CC(=O)O)CCN(CC(=O)O)CCN(CC(=O)O)CC2)C(C)(C)C)NC(=O)[C@H](CC(N)=O)NC(=O)C(C)(C)NC(=O)[C@H](CCCNC(=N)NC)NC1=O [PSM-0481] (Ac-[Aib][Phe(4-Cl)]C[Lys(Me)][Arg(Me)][Aib]NC[Tle]-{Ethylenediamine-DOTA}; disulfide 3-8)
Assay Metric: IC50
Reported Value: < 200 nM

Compound: CNCCCC[C@@H]1NC(=O)[C@@H](NC(=O)[C@H](Cc2ccccn2)NC(=O)C(C)(C)NC(=O)[C@@H](NC(=O)CC2CCN(C(=O)CN3CCN(CC(=O)O)CCN(CC(=O)O)CCN(CC(=O)O)CC3)CC2)[C@@H](C)O)CSSC[C@@H](C(=O)N[C@H](C(N)=O)C(C)(C)C)NC(=O)[C@H](CC(N)=O)NC(=O)C(C)(C)NC(=O)[C@H](CCCNC(=N)NC)NC1=O [PSM-0409] ({DOTA}-[X1]T[Aib][2Pal]C[Lys(Me)][Arg(Me)][Aib]NC[Tle]-NH2; disulfide 5-10)
Assay Metric: IC50
Reported Value: 200 to 1260 nM

----------
molecular target: PSMA-expressing C4-2 cells (Homo sapiens, UniProt Q04609); construct: PSMA-expressing C4-2 cells (ATCC, Cat. No. CRL-3314) were cultured in RPMI-1640; host or cells: C4-2 cells; assay: FACS binding assay (competition with 50 nM PSM-0183); conditions: pIC50 category of FACS binding, C4-2 cells; read-out: pIC50 [C4-2] CAT (converted)
Sequence (Q04609 whole entry): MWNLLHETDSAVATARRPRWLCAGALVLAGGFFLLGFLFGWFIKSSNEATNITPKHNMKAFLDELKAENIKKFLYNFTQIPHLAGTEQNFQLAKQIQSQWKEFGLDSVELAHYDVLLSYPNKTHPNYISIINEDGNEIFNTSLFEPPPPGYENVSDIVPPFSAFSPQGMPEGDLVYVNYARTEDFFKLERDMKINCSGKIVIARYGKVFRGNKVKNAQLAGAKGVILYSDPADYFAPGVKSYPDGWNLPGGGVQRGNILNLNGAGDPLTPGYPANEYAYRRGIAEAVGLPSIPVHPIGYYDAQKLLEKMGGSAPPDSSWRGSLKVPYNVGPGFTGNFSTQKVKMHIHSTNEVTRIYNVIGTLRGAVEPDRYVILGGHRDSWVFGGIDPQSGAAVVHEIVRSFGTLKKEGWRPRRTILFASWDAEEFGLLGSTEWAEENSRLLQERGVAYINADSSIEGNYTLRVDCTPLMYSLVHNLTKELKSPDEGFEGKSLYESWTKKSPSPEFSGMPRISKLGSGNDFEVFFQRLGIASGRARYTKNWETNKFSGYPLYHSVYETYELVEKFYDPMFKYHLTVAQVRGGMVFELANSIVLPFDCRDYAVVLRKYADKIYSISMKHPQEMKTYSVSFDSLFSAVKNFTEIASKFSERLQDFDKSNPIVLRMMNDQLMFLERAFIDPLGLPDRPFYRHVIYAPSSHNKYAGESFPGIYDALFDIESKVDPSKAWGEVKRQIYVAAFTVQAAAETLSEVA
Bridge positions count the residues as written; N and C are the ends. Square brackets hold non-standard residues; d marks the D form. Peptide text beside a SMILES is read from it. Pro(4R-NH2) = N[C@H]1CN[C@H](C(=O)O)C1; Tle = CC(C)(C)[C@H](N)C(=O)O; Nle = CCCC[C@H](N)C(=O)O; Aib = CC(C)(N)C(=O)O

Compound: CC(=O)N[C@H](C(=O)NC(C)(C)C(=O)N[C@@H](Cc1ccccc1)C(=O)N[C@H]1CSSC[C@@H](C(=O)N[C@H](C(=O)N[C@H](C(=O)N[C@@H](CC(=O)O)C(N)=O)[C@@H](C)O)C(C)(C)C)NC(=O)[C@H](CC(N)=O)NC(=O)[C@H](C)NC(=O)[C@H](CCCNC(=N)N)NC(=O)[C@@H]2C[C@@H](N)CN2C1=O)[C@@H](C)O [PSM-0422] (Ac-T[Aib]FC[Pro(4R-NH2)]RANC[Tle]TD-NH2; disulfide 4-9)
IC50: < 0.2 µM

Compound: CCCC[C@H](NC(=O)[C@@H]1CSSC[C@H](NC(=O)[C@H](Cc2ccccc2)NC(=O)[C@H](C)NC(=O)[C@H](NC(C)=O)[C@H](C)O)C(=O)N[C@@H](CCCCN)C(=O)N[C@@H](CCCNC(=N)N)C(=O)N[C@@H](C)C(=O)N[C@@H](CC(N)=O)C(=O)N1)C(=O)N[C@H](C(=O)N[C@@H](CC(=O)O)C(N)=O)[C@@H](C)O
IC50: > 3.16 µM

Compound: CCCC[C@H](NC(=O)[C@@H]1CSSC[C@H](NC(=O)[C@H](Cc2ccccc2)NC(=O)[C@H](C)NC(=O)[C@@H](NC(C)=O)[C@@H](C)O)C(=O)N2CCC[C@H]2C(=O)N[C@@H](CCCNC(=N)N)C(=O)N[C@@H](C)C(=O)N[C@@H](CC(N)=O)C(=O)N1)C(=O)N[C@H](C(=O)N[C@@H](CC(=O)O)C(N)=O)[C@@H](C)O [PSM-0544] (Ac-TAFCPRANC[Nle]TD-NH2; disulfide 4-9)
IC50: > 3.16 µM

----------
Listed compounds paired with reported IC50
target: PSMA-expressing C4-2 cells (Homo sapiens, UniProt Q04609); construct: PSMA-expressing C4-2 cells (ATCC, Cat. No. CRL-3314) were cultured in RPMI-1640; host or cells: C4-2 cells; assay: FACS binding assay (competition with 50 nM PSM-0183); conditions: FACS binding, PSMA-expressing C4-2 cells; pIC50 category; read-out: pIC50 [C4-2] CAT (converted)
Numbered stars: 1 amine (or outer) side, 2 acyl side, 3 side chain; on linkers, the order of the positions; unused ones are H or OH. Bridge positions count the residues as written; N and C are the ends. Square brackets hold non-standard residues; d marks the D form. Peptide text beside a SMILES is read from it. * marks the point of attachment. TtdsdLys(DOTA)NH2 = NC(=O)[C@@H](CCCCNC(=O)CN1CCN(CC(=O)O)CCN(CC(=O)O)CCN(CC(=O)O)CC1)NC(=O)CCC(=O)NCCCOCCOCCOCCCN*; DOTA = O=C(O)CN1CCN(CC(=O)O)CCN(CC(=O)*)CCN(CC(=O)O)CC1; Phe(3-Cl) = N[C@@H](Cc1cccc(Cl)c1)C(=O)O; Arg(Me) = CNC(=N)NCCC[C@H](N)C(=O)O; X1 = O=C(CC1CCN([*:1])CC1)[*:2]; Lys(Me) = CNCCCC[C@H](N)C(=O)O; Tle = CC(C)(C)[C@H](N)C(=O)O; Nle = CCCC[C@H](N)C(=O)O; Aib = CC(C)(N)C(=O)O

Compound: CC(=O)N[C@@H](Cc1ccccc1)C(=O)N[C@H]1CSSC[C@@H](C(=O)N[C@@H](CC(C)C)C(=O)N[C@H](C(=O)N[C@@H](CC(=O)O)C(=O)NCCCOCCOCCOCCCNC(=O)CCC(=O)N[C@H](CCCCNC(=O)CN2CCN(CC(=O)O)CCN(CC(=O)O)CCN(CC(=O)O)CC2)C(N)=O)[C@@H](C)O)NC(=O)[C@H](CC(N)=O)NC(=O)[C@H](C)NC(=O)[C@H](CCCNC(=N)N)NC(=O)[C@H](CCCCN)NC1=O [PSM-0323] (Ac-FCKRANCLTD-{TtdsdLys(DOTA)NH2}; disulfide 2-7)
IC50: > 3.16 µM
//
Compound: CCCC[C@H](NC(=O)[C@@H]1CSSC[C@H](NC(=O)[C@H](Cc2ccccc2)NC(=O)[C@H](C)NC(=O)[C@@H](NC(C)=O)[C@@H](C)O)C(=O)N[C@@H](CCCCN)C(=O)N[C@@H](CCCNC(=N)N)C(=O)N[C@@H](C)C(=O)N2CCC[C@H]2C(=O)N1)C(=O)N[C@H](C(=O)N[C@@H](CC(=O)O)C(N)=O)[C@@H](C)O [PSM-0286] (Ac-TAFCKRAPC[Nle]TD-NH2; disulfide 4-9)
IC50: > 3.16 µM
//
Compound: CNCCCC[C@@H]1NC(=O)[C@@H](NC(=O)[C@H](Cc2cccc(Cl)c2)NC(=O)C(C)(C)NC(=O)[C@@H](NC(=O)CC2CCN(C(=O)CN3CCN(CC(=O)O)CCN(CC(=O)O)CCN(CC(=O)O)CC3)CC2)[C@@H](C)O)CSSC[C@@H](C(=O)N[C@H](C(N)=O)C(C)(C)C)NC(=O)[C@H](CC(N)=O)NC(=O)C(C)(C)NC(=O)[C@H](CCCNC(=N)NC)NC1=O [PSM-0354] ({DOTA}-[X1]T[Aib][Phe(3-Cl)]C[Lys(Me)][Arg(Me)][Aib]NC[Tle]-NH2; disulfide 5-10)
IC50: < 0.2 µM

Data provenance: patent US20260083865A1
